Data provenance is ChEMBL document CHEMBL4513216.

# Test system: Plasmodium berghei
# Test method notes: Screen against P. berghei liver stage (PbLuc), transformed with Luciferase, at 10uM
# Type: functional, HepG2
# Reported conditions: tested at 10 uM
The campaign covered roughly 69,000 compounds. About 8,600 (12%) showed an effect of 50% or more. For the sample, strong results were picked, then their nearest neighbours and some compounds at random.
With a cut-off of 20%, any INHIBITION strictly below it is called Yes; any INHIBITION meeting it or above is called No.

INSERT INTO results (compound, answer_label) VALUES
  ('Cc1nc(C)c(C(=O)NCCn2nc3ccccn3c2=O)s1', 'Yes'),
  ('COc1cc(N2CCC3(CC2)CN(S(C)(=O)=O)c2ccccc23)ncn1', 'No'),
  ('Cc1nn(C)cc1-c1cc(C(F)(F)F)nc(NC2CCN(C)CC2)n1', 'No'),
  ('CCOC(=O)CN1CCC2(CC1)CC(=O)c1ccc3ccccc3c1O2', 'No'),
  ('NC(=O)c1ccc(OCC(=O)NS(=O)(=O)c2ccc3c(c2)CCC3)cc1', 'Yes'),
  ('CS(=O)(=O)NC1CCN(Cc2coc(-c3ccc(Cl)cc3)n2)CC1', 'No'),
  ('O=C(CCNC(=O)c1ccoc1)Nc1cccc(F)c1', 'Yes'),
  ('CCc1nc(C)c(C(=O)NCCn2nc3ccccn3c2=O)s1', 'Yes'),
  ('Cc1cc(CN(C)Cc2cc3c(cc2OC(F)F)OCO3)on1', 'Yes'),
  ('c1ccc2oc(CCCN3CCCC(Cn4cncn4)C3)nc2c1 (stereo not drawn)', 'No'),
  ('OC1(CNc2ccccc2)CCNCC1', 'No'),
  ('CCc1cnccc1C(=O)NC1CCN(C(=O)C2CCCCC2)CC1', 'No'),
  ('Cc1nc(C(C)C)sc1C(=O)NCCn1ccnc1', 'No'),
  ('COc1cc(C(=O)NS(=O)(=O)c2cccc(C#N)c2)ccc1C', 'Yes'),
  ('NCCn1cc(C(=O)N2CCNC(=O)C2c2cccc(F)c2)nn1 (stereo not drawn)', 'Yes'),
  ('CCCc1nc(C)c(C(=O)NCCn2nc3ccccn3c2=O)s1', 'No'),
  ('Cc1cnc(N2CCC3(CC2)CCN(c2cncnc2)C3=O)nc1', 'No'),
  ('O=C(Cc1cccs1)N1C[C@H]2CN(CC3CCCO3)CC[C@H]2C1 (stereo partly drawn)', 'No'),
  ('O=C(c1cnccn1)N1CC2(CCN(Cc3ccsc3)C2)C1', 'No'),
  ('Cn1cc(C(=O)N[C@@H]2CN(Cc3cccs3)[C@@H]3CCCO[C@@H]32)cn1', 'Yes'),
  ('COCCn1cc2c(n1)C(CNCc1ccc(F)cc1)OCC2 (stereo not drawn)', 'Yes'),
  ('Cc1cccc(CN2CCC3(CCN(c4ccccn4)C3)C2=O)c1 (stereo not drawn)', 'No'),
  ('Cc1nc[nH]c1C(=O)N1CCCC2(C1)C(=O)N(C)c1ccccc12 (stereo not drawn)', 'Yes'),
  ('Cc1nnc(SCc2ccccn2)s1', 'No'),
  ('CC1(C)Oc2ccc(S(=O)(=O)NCCCn3ccnc3)cc2NC1=O', 'Yes'),
  ('Cc1nn(C)cc1-c1cc(C(F)F)nc(NC2CCCCC2)n1', 'No'),
  ('CCC(C)N(Cc1sccc1C)C(=O)c1cnc[nH]1 (stereo not drawn)', 'Yes'),
  ('Cc1nc(C(C)(C)C)sc1C(=O)NCCn1ccnc1', 'No'),
  ('COc1cccc(C(=O)NS(=O)(=O)c2cccc(C#N)c2)c1', 'No'),
  ('CCC(C)(C)NC(=O)Cn1nnc(CN(C)C(=O)c2ccccc2)n1', 'No'),
  ('COc1cc(C(=O)NS(=O)(=O)c2cccc(C#N)c2)cc(Cl)c1OC', 'Yes'),
  ('CN(Cc1ccc(Cl)s1)C(=O)COc1cccc(C(N)=O)c1', 'Yes'),
  ('COCCn1ccnc1C1CCCN(C(=O)c2cc(F)cc(F)c2)C1 (stereo not drawn)', 'No'),
  ('CC(=O)N1CCN(C(=O)c2ccc(Sc3ccccn3)cc2)CC1', 'Yes'),
  ('Cc1ccnc(C2CN(c3ncccn3)C2)n1', 'No'),
  ('CN(Cc1ccc(O)cc1)C(=O)NCc1nnc2n1CCCCC2', 'Yes'),
  ('Cc1cccc(NC(=O)N2CCN(Cc3noc(C4CC4)n3)CC2)c1', 'No'),
  ('COc1cc(N2CCCC3(CCN(c4cncnc4)C3=O)C2)ncn1 (stereo not drawn)', 'No'),
  ('CCCc1nc(C)c(C(=O)NCCn2ccnc2)s1', 'No'),
  ('CC(=O)N1CCn2c(C(=O)N(C)C)cnc2C1', 'No'),
  ('O=C(CCNC(=O)c1ccoc1)Nc1c(F)cccc1F', 'Yes'),
  ('CC1Oc2ccc(S(=O)(=O)NCCCn3ccnc3)cc2NC1=O (stereo not drawn)', 'No'),
  ('O=C(CCNC(=O)c1ccoc1)Nc1cc(F)ccc1F', 'No'),
  ('CS(=O)(=O)NC1CCN(Cc2coc(-c3ccccc3)n2)CC1', 'No'),
  ('O=C(CCNC(=O)c1ccoc1)Nc1ccc(F)cc1F', 'No'),
  ('O=C(CCNC(=O)c1ccoc1)Nc1ccccc1F', 'No'),
  ('N#Cc1ccc(CS(=O)(=O)NC(=O)c2ccc(C#N)cc2)cc1', 'Yes'),
  ('Cc1ccc(-c2nc(C3CCN(C(=O)c4cnn(C)c4)CC3)no2)cn1', 'No');

* * *

# Tested on: Plasmodium berghei
# Test method notes: Screen against P. berghei liver stage (PbLuc), transformed with Luciferase, at 10uM
# Assay type: functional, HepG2
# Reported conditions: tested at 10 uM
The campaign covered roughly 69,000 compounds. About 8,600 (12%) showed an effect of 50% or more. What follows is part of a selection rich in strong results, with near analogues and random picks from the rest.
Quantity name: INHIBITION (%)

INSERT INTO results (compound, unit_string, recorded_number) VALUES
  ('Cc1nn(C)c(C)c1C(=O)N1CCN(c2ccncc2Cl)CC1', '%', 43.9),
  ('Cc1ccc2nc(C)cc(C(=O)N[C@H]3COC[C@@H]3N3CCOCC3)c2c1', '%', 66.5),
  ('c1cncc(COCC2CN(Cc3ccco3)Cc3nccn3C2)c1 (centres undefined)', '%', -6.39),
  ('COC(=O)c1cccc(C(=O)N2CCN(c3cc(Cl)ccc3C)CC2)n1', '%', 66.4),
  ('COC(=O)c1cccc(C(=O)N2CCN(c3cccc(C)c3C)CC2)n1', '%', 74.2),
  ('Cc1cccc(N2CCN(C(=O)c3c(C)nn(C)c3C)CC2)c1C', '%', 54.8),
  ('Cc1ccc(C(=O)NCCS(=O)(=O)N2CCSCC2)o1', '%', 44.9),
  ('CN1CCN(C(=O)c2cccn2C)Cc2cccnc21', '%', 16.4),
  ('COC(=O)c1cccc(C(=O)N2CCN(c3ccccc3F)CC2)n1', '%', 30),
  ('COC(=O)c1cccc(C(=O)N2CCN(c3ccc(Cl)cc3)CC2)n1', '%', -18.3),
  ('O=C(c1cccnc1)N1Cc2[nH]nc(COCCO)c2C1', '%', 40.8),
  ('CC(C)n1nc(CNc2ncccn2)c2c1CN(C)CC2', '%', -3.77),
  ('CCO[C@H]1CN(C)C[C@@H]1NC(=O)c1cc(C)nc2ccc(C)cc12', '%', 28.4),
  ('CCS(=O)(=O)N1Cc2[nH]nc(COCc3cccnc3)c2C1', '%', 58.3),
  ('Cc1ncc2c(n1)CCCC2NC(=O)c1ccccc1C(=O)O (centres undefined)', '%', 11.6),
  ('CCn1nnc2c1C(COC)CN(Cc1ccsc1)C2 (centres undefined)', '%', 21),
  ('O=C(Cn1cnc2ccsc2c1=O)NCCCc1nnc2ccccn12', '%', 34.3),
  ('O=c1cccnn1CC1CN(CC2CCCC2)Cc2nccn2C1 (centres undefined)', '%', -23.1),
  ('Cc1cc(C(=O)N(C)C2CCN(C)C2)c2ccc(F)cc2n1 (centres undefined)', '%', 21.5),
  ('c1cncc(COCc2nnc3n2CCN(Cc2cccs2)C3)c1', '%', -8.94),
  ('Cc1ccc2nc(C)c(C)c(C(=O)N3CCC4(CCO4)CC3)c2c1', '%', 33.3),
  ('COc1cccc(CN2CCN(c3cccc(C(C)C)n3)CC2)c1F', '%', -26.1),
  ('O=C(NCc1cccnc1N1CCc2ccccc2C1)c1cnc[nH]1', '%', -11.6),
  ('Cc1ncc2c(n1)CCCC2NC(=O)c1ccccc1Cn1cncn1 (centres undefined)', '%', 64);

* * *

# Tested on: Plasmodium berghei
# Test method notes: Screen against P. berghei liver stage (PbLuc), transformed with Luciferase, at 10uM
# Type: functional, HepG2
# Reported conditions: tested at 10 uM
Out of some 69,000 compounds screened, about 8,600 (12%) showed an effect of 50% or more. For the sample, strong results were picked, then their nearest neighbours and some compounds at random.
# INHIBITION >= 30% gives T, anything below gives F

INSERT INTO results (compound, answer_label) VALUES
  ('Cc1nc(C(=O)N2CCOC(Cc3ccc(F)cc3)C2)co1 (stereo unspecified)', 'F'),
  ('c1ccc(CCN2CCc3c(ncn3C3CC3)C2)nc1', 'F'),
  ('CC(C)(C)C(=O)NCCCC(=O)NC(C)(C)c1ccc2c(c1)OCO2', 'F'),
  ('CS(=O)(=O)N1CC[C@@H]2OC(COCC(=O)N3CCCC3)CC[C@@H]21 (stereo partly specified)', 'F'),
  ('Clc1ccc(CN2CCc3c(ncn3C3CC3)C2)c2ncccc12', 'T'),
  ('CN(Cc1ccccc1OC(F)(F)F)C(=O)C1CC1', 'T'),
  ('COCCN1CCN(CC(C)(O)c2cccc(C(F)(F)F)c2)CC1 (stereo unspecified)', 'T'),
  ('COc1ccnc(N(C)Cc2ccccc2OC(F)(F)F)n1', 'F'),
  ('c1ccc2oc(CCCN3CCCC3c3noc(C4CC4)n3)nc2c1 (stereo unspecified)', 'F'),
  ('Cn1cnc2c1CCN(Cc1ccc(Cl)c3cccnc13)C2', 'T'),
  ('CCOc1cc(C(=O)N(C)C)ccc1NC(=O)C(C)c1ccsc1 (stereo unspecified)', 'T');
